Cited source for all entries: ChEMBL document CHEMBL5625172

# assayedSystem: CDK4/Cyclin D3 (Homo sapiens)
# Sequence (P11802 whole entry): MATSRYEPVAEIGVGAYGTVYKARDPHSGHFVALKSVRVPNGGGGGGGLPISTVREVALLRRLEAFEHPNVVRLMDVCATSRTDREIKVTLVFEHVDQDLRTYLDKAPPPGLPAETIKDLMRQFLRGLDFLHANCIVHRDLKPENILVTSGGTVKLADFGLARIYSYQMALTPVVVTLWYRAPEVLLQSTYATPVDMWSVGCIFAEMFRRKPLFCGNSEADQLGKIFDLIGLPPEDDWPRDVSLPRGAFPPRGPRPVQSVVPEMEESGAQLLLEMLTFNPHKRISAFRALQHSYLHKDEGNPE
# Sequence (P30281 whole entry, further chain): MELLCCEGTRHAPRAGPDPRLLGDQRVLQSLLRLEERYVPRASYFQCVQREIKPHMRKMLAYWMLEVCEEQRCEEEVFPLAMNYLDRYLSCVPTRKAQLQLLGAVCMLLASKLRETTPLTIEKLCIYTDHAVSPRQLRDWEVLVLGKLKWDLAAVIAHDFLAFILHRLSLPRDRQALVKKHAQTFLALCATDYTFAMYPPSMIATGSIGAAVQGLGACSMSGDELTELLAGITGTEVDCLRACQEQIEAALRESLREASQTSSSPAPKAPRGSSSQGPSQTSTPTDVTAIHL
# protocolSummary: Inhibition of CDK4/cyclinD3 (unknown origin) by scintillation proximity assay
pIC50: −log10 of the molar value.
observationType: pIC50

Entry Cn1cc(-c2cccc(NC(=O)c3cc4c(nc3O[C@H]3C[C@@H](O)C3)OC(C)(C)C4)n2)cn1 ; pIC50 = < 4.52

###

# assayedSystem: Receptor-interacting serine/threonine-protein kinase 1 (Homo sapiens, UniProt Q13546)
observationType: pIC50
Numbers only, as −log10 of the molar value.

Entry Cn1cc(-c2cccc(NC(=O)c3cc4c(nc3O[C@H]3C[C@@H](O)C3)OC(C)(C)C4)n2)cn1 ; pIC50 = 5.33

###

# protocolSummary: Inhibition of LPS-induced IL-6 protein expression in immortalized mouse BMDM cells preincubated for 2 hrs followed by LPS stimulation and measured after 16 hrs by ELISA
# Type: functional, cell-based
observationType: IC50
Put your answer as a value accompanied by its unit after it.

Entry Cn1cc(-c2cccc(NC(=O)c3cc4c(nc3O[C@H]3C[C@@H](O)C3)OC(C)(C)C4)n2)cn1 ; IC50 = 130 nM

###

# assayedSystem: Serine/threonine-protein kinase MRCK alpha (Homo sapiens)
# Sequence (Q5VT25 whole entry): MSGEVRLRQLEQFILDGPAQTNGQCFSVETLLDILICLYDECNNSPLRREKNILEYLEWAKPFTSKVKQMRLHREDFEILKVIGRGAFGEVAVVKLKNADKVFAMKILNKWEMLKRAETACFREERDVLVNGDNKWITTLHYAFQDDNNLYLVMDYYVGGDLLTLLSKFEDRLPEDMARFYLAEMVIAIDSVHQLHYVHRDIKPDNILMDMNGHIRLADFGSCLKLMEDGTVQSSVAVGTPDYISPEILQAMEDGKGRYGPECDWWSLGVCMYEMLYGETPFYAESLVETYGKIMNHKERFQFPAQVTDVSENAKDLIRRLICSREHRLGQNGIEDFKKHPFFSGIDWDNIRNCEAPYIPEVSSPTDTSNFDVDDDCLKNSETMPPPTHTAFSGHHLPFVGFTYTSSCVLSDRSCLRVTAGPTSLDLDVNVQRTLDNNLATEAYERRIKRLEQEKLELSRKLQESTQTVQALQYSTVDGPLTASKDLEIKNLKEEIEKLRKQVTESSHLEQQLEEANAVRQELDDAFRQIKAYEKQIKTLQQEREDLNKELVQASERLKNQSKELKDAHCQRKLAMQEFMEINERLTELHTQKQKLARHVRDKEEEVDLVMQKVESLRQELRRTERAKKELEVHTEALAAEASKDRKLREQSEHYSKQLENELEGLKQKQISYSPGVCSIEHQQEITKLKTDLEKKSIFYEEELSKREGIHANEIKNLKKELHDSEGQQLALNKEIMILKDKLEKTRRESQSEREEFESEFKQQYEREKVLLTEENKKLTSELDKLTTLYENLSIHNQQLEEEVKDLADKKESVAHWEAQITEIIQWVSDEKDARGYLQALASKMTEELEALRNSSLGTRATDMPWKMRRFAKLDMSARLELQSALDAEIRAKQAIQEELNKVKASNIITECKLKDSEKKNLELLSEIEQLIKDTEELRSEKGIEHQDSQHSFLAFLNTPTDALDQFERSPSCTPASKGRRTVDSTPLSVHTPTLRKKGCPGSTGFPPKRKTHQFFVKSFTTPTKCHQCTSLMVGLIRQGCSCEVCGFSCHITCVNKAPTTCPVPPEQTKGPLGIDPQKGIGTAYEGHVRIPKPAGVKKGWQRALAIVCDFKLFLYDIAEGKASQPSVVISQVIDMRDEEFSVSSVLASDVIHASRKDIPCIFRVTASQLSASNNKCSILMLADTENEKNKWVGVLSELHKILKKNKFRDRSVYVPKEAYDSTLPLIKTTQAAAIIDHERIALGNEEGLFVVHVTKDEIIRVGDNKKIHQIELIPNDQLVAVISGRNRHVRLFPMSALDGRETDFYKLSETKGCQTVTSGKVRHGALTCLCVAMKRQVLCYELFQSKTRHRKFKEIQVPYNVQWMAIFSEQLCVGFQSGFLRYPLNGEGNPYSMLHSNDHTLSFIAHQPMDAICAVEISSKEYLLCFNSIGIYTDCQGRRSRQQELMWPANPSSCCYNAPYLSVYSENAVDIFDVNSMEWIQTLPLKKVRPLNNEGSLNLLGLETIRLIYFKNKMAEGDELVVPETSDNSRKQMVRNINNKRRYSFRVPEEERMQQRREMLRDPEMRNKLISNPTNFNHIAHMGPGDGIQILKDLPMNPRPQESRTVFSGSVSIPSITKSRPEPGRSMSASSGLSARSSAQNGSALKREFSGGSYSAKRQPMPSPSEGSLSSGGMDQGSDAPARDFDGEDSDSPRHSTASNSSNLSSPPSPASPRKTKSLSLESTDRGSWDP
observationType: IC50

Entry Cn1cc(-c2cccc(NC(=O)c3cc4c(nc3O[C@H]3C[C@@H](O)C3)OC(C)(C)C4)n2)cn1 ; IC50 = > 30 µM

###

# assayedSystem: Mitogen-activated protein kinase kinase kinase 5 (Homo sapiens, UniProt Q99683)
# Sequence (Q99683 whole entry): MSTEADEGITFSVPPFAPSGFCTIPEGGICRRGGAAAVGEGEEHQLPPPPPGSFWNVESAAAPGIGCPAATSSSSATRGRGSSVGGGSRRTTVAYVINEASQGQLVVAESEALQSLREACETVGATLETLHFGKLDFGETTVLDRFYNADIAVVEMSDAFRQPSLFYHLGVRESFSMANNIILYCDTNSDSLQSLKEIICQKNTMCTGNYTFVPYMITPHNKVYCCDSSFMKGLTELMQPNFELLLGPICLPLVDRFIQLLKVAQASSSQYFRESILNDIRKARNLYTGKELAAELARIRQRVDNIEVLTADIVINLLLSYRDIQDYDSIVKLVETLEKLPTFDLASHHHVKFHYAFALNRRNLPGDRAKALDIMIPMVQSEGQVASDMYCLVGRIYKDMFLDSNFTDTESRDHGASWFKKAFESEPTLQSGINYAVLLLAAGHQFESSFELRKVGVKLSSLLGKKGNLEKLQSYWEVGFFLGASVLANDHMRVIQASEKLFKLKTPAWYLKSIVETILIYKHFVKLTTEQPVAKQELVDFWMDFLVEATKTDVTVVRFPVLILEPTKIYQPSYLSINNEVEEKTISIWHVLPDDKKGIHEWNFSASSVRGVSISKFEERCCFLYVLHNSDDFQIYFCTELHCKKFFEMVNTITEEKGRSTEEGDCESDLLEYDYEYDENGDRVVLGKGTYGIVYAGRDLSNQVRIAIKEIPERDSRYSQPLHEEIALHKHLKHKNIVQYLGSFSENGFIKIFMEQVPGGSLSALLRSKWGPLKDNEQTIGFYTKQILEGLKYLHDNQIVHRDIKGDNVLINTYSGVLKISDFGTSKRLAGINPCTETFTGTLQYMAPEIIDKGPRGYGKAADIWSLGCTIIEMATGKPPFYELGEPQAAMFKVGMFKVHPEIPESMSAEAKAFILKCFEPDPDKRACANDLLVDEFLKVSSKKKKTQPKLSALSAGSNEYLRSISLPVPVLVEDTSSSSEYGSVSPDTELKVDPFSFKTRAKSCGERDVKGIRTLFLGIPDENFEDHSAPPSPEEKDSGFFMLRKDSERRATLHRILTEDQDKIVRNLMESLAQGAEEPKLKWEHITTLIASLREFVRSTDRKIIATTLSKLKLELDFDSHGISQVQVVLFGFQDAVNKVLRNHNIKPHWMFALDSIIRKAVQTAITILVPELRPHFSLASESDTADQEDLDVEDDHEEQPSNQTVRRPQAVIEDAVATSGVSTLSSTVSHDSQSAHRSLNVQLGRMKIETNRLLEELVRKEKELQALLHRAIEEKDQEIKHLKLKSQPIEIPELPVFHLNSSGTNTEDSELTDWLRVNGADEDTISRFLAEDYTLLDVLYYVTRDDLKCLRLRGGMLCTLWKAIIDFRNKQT
# protocolSummary: Inhibition of ASK1 (unknown origin) by scintillation proximity assay
pIC50: −log10 of the molar value.
observationType: pIC50

Entry Cn1cc(-c2cccc(NC(=O)c3cc4c(nc3O[C@H]3C[C@@H](O)C3)OC(C)(C)C4)n2)cn1 ; pIC50 = < 4.52

###

# assayedSystem: Interleukin-1 receptor-associated kinase 1 (Homo sapiens)
# Sequence (P51617 whole entry): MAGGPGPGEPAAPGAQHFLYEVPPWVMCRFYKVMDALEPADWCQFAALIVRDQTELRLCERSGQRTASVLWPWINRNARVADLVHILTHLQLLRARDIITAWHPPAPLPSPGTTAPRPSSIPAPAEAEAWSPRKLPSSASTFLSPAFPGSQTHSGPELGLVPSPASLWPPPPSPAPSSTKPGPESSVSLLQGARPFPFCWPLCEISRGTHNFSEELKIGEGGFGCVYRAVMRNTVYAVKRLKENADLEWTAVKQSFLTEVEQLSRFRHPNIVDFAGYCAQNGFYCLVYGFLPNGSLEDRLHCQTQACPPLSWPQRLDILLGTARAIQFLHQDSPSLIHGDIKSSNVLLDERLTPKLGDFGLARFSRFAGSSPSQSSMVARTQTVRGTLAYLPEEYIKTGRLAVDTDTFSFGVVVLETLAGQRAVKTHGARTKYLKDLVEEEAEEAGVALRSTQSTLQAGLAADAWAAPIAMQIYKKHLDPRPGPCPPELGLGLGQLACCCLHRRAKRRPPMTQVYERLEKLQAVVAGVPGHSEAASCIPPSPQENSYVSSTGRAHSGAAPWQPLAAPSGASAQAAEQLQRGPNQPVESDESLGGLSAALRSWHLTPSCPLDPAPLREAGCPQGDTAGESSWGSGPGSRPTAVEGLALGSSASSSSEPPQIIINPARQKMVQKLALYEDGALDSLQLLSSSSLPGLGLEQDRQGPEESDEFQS
observationType: Kd (nM)
Give bare numbers, in nM.

Entry Cn1cc(-c2cccc(NC(=O)c3cc4c(nc3O[C@H]3C[C@@H](O)C3)OC(C)(C)C4)n2)cn1 ; Kd = 13

###

# assayedSystem: Serine/threonine-protein kinase 17A (Homo sapiens, UniProt Q9UEE5)
# Sequence (Q9UEE5 whole entry): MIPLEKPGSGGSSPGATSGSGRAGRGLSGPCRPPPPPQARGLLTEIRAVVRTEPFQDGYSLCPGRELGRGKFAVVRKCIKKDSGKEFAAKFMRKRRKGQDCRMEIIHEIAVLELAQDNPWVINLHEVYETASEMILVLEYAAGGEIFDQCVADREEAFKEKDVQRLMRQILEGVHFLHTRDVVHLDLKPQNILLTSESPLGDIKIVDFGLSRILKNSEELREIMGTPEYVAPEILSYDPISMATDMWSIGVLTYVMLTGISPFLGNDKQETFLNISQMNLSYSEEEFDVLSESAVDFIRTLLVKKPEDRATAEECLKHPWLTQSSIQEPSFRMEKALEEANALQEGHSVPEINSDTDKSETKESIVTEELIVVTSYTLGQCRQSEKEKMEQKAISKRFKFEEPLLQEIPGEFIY
observationType: IC50 (nM)
Answers are plain numbers, in nM.

Entry Cn1cc(-c2cccc(NC(=O)c3cc4c(nc3O[C@H]3C[C@@H](O)C3)OC(C)(C)C4)n2)cn1 ; IC50 = 788

###

# assayedSystem: Tyrosine-protein kinase BTK (Homo sapiens, UniProt Q06187)
# Sequence (Q06187 whole entry): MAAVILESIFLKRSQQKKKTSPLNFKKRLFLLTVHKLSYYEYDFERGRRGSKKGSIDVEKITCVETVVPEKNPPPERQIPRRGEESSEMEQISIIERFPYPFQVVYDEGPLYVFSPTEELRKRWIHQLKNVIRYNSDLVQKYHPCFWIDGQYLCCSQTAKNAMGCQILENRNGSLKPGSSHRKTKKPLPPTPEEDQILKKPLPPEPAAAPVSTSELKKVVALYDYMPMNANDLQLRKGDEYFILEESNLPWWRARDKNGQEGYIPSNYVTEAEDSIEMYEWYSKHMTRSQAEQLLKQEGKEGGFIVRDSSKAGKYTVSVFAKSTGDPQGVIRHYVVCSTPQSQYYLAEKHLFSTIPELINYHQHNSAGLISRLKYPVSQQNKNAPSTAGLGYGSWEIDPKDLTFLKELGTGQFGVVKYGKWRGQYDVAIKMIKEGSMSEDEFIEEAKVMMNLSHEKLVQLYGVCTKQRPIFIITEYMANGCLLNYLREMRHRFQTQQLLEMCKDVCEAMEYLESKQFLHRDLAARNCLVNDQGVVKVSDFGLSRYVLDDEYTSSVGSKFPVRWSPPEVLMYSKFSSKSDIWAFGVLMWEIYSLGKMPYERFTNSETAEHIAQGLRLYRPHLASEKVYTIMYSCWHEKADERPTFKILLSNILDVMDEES
pIC50: −log10 of the molar value.
observationType: pIC50

Entry Cn1cc(-c2cccc(NC(=O)c3cc4c(nc3O[C@H]3C[C@@H](O)C3)OC(C)(C)C4)n2)cn1 ; pIC50 = < 4.52

###

# protocolSummary: Inhibition of LPS-induced IL-6 mRNA expression in human PBMC cells preincubated for 2 hrs followed by LPS stimulation and measured after 16 hrs by qPCR analysis
# Assay type: functional, cell-based
observationType: IC50 (nM)
One number for each entry, in nM.

Entry Cn1cc(-c2cccc(NC(=O)c3cc4c(nc3O[C@H]3C[C@@H](O)C3)OC(C)(C)C4)n2)cn1 ; IC50 = 560

###

# protocolSummary: Plasma protein binding in Sprague-Dawley rat by LC-MS analysis
# Assay type: ADME, cell-free
# protocolConditions: read-out: PPB (converted)
observationType: fraction unbound
Give bare numbers.

Entry Cn1cc(-c2cccc(NC(=O)c3cc4c(nc3O[C@H]3C[C@@H](O)C3)OC(C)(C)C4)n2)cn1 ; fraction unbound = 0.03

###

# assayedSystem: Serine/threonine-protein kinase PAK 1 (Homo sapiens, UniProt Q13153)
# Sequence (Q13153 whole entry): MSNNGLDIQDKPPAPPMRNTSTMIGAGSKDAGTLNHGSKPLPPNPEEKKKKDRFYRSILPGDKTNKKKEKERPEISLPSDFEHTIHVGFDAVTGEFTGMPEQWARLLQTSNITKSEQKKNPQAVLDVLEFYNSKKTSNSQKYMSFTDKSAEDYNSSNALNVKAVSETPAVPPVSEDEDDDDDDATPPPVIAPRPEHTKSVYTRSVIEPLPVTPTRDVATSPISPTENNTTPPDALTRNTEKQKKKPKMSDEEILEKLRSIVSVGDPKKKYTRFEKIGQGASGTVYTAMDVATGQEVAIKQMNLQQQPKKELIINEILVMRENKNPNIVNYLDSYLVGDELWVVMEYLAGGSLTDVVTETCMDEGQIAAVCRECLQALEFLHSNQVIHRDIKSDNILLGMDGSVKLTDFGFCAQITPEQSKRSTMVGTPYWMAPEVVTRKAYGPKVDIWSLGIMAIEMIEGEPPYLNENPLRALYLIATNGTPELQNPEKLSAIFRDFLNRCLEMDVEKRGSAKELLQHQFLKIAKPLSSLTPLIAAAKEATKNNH
observationType: IC50

Entry Cn1cc(-c2cccc(NC(=O)c3cc4c(nc3O[C@H]3C[C@@H](O)C3)OC(C)(C)C4)n2)cn1 ; IC50 = > 30 µM

###

# protocolSummary: Oral bioavailability in Sprague-Dawley rat at 5 to 10 mg/kg measured after 0.25 to 24 hrs by LC-MS analysis
# Type: ADME, organism-based
# protocolConditions: in vivo, dose lower 5 mg/kg, time lower 0.25 hrs, dose upper 10 mg/kg, time upper 24 hrs
Provide the reported bioavailability of each item.
Give bare numbers, in %.

Example entries and their recorded answers appear below.
{"columns": ["mol", "bioavailability, %"],
 "data": [
  ["CCOc1nc2c(cc1C(=O)Nc1cccc(-c3cnn(C)c3)n1)CC(C)(C)O2", 3.6],
  ["Cn1cc(-c2cccc(NC(=O)c3cc4c(nc3OC3COC3)OC(C)(C)C4)n2)cn1", 1.5]
]}

Please examine the following record next.
Entry CC(C)Oc1nc2c(cc1C(=O)Nc1cccc(-c3cnn(C)c3)n1)CC(C)(C)O2 ; bioavailability = 7.5

###

# protocolSummary: Clearance in Sprague-Dawley rat at 2 mg/kg, iv measured after 5 mins to 24 hrs by LC-MS analysis
# Type: ADME, organism-based
# protocolConditions: in vivo, time 5-1440 min
observationType: clearance
Put your answer as a value accompanied by its unit after it.

Example entries and their recorded answers appear below.
{"columns": ["mol", "valueMeasured"],
 "data": [
  ["Cn1cc(-c2cccc(NC(=O)c3cc4c(nc3OC3COC3)OC(C)(C)C4)n2)cn1", "58 mL/min/kg"],
  ["Cn1cc(-c2cccc(NC(=O)c3cc4c(nc3OC3CC3)OC(C)(C)C4)n2)cn1", "43 mL/min/kg"],
  ["Cn1cc(-c2cccc(NC(=O)c3cc4c(nc3O[C@H]3C[C@@H](O)C3)OC(C)(C)C4)n2)cn1", "12 mL/min/kg"],
  ["CC(C)Oc1nc2c(cc1C(=O)Nc1cccc(-c3cnn(C)c3)n1)CC(C)(C)O2", "44 mL/min/kg"]
]}

Would you mind giving clearance for every compound in the list below?
1. Cn1cc(-c2cccc(NC(=O)c3cc4c(nc3O[C@H]3C[C@H](O)C3)OC(C)(C)C4)n2)cn1
2. Cn1cc(-c2cccc(NC(=O)c3cc4c(nc3OC3CCC3)OC(C)(C)C4)n2)cn1
3. CCOc1nc2c(cc1C(=O)Nc1cccc(-c3cnn(C)c3)n1)CC(C)(C)O2
4. Cn1cc(-c2cccc(NC(=O)c3cc4c(nc3O[C@@H]3CCOC3)OC(C)(C)C4)n2)cn1

Result:
1. 18 mL/min/kg
2. 41 mL/min/kg
3. 43 mL/min/kg
4. 31 mL/min/kg
